Ok so here's the combined literature set: IC50 for human eIF4E protein (Homo sapiens).

O=C(O)c1cc(-c2nc(-c3ccc(C(F)(F)F)cc3)cs2)ccc1-c1ccccc1[N+](=O)[O-] : 2400 nM
Cc1ccc(-c2nc(Nc3ncc(-c4cccs4)cc3C(=O)O)sc2CC(C)C)s1 : ≤ 500 nM

Read the next record carefully.
The recorded IC50 for O=C(O)CC1CCCN1c1nc(-c2ccc(-c3ccc(F)cc3)nc2)c(-c2cncnc2)s1 (stereo not drawn) is > 25000 nM

----------
Ok so here's the combined literature set: IC50 for human eIF4E protein (Homo sapiens).

Here's what some known entries look like.
O=C(O)c1ccc(-c2ccc(-c3nc(-c4ccc(Cl)c(Cl)c4)cs3)cc2C(=O)O)c(F)c1 : 6100 nM
CCOc1ccc(-c2nc(Nc3ncc(-c4cccs4)cc3C(=O)O)sc2CC(C)C)cc1 : ≤ 500 nM
Cn1nccc1CNC(=O)c1ccc(-c2ccc(-c3nc(-c4ccc(Cl)c(Cl)c4)cs3)cc2C(=O)O)cc1 : 7800 nM
CC(=O)c1sccc1-c1ccc(-c2nc(-c3ccc(Cl)c(Cl)c3)cs2)cc1C(=O)O : 9600 nM
O=C(O)C1CCN(c2nc(-c3ccc(Oc4ccccc4)cc3)c(-c3cncnc3)s2)C1 (stereo not shown) : > 25000 nM
COc1ccc(-c2ccc(-c3nc(-c4ccc(Cl)c(Cl)c4)cs3)cc2C(=O)O)c(Cl)c1 : 1500 nM

The recorded IC50 for O=C(O)C1CCN(c2nc(-c3ccc(-c4ccc(F)cc4)cc3)c(-c3ccccc3)s2)C1 (stereo not shown) is < 5000 nM

The recorded IC50 for `O=C(O)c1cc(-c2nc(-c3ccc(Cl)c(Cl)c3)cs2)ccc1-c1ccccc1[N+](=O)[O-]` is 2800 nM

The recorded IC50 for `COCCOc1ccc(-c2nc(Nc3ncc(-c4ccc(C)s4)cc3C(=O)O)sc2CC(C)C)cc1` is ≤ 500 nM

The recorded IC50 for `O=C(O)c1cc(-c2nc(-c3ccc(Cl)c(Cl)c3)cs2)ccc1-c1ccc(F)cc1F` is 5600 nM

The recorded IC50 for CCCC(CNc1nc(-c2ccc(-c3cnco3)cc2)c(-c2ccccc2)s1)C(=O)O (stereo not shown) is 5000 to 25000 nM

The recorded IC50 for `CN1CCN(C(=O)c2ccc(-c3ccc(-c4nc(-c5ccc(Cl)c(Cl)c5)cs4)cc3C(=O)O)cc2)CC1` is > 80000 nM

The recorded IC50 for `COc1ccc(CNC(=O)c2ccc(-c3ccc(-c4nc(-c5ccc(Cl)c(Cl)c5)cs4)cc3C(=O)O)cc2)cc1` is 2000 nM

----------
Ok so here's the combined literature set: pIC50 for human eIF4E protein (Homo sapiens, UniProt P06730).
pIC50: −log10 of the molar value.

Here's what some known entries look like.
CN1CCC(NC(=O)c2ccc(-c3ccc(-c4nc(-c5ccc(Cl)c(Cl)c5)cs4)cc3C(=O)O)cc2)CC1 : < 4.10
COc1cc(-c2nc(Nc3ncc(-c4cccs4)cc3C(=O)O)sc2CC(C)C)ccc1C : ≥ 6.30
CCCC(CNc1nc(-c2ccc(-c3ccc(F)cc3)cc2)cs1)C(=O)O (centres unmarked) : < 4.60
O=C(O)C1CCCN(c2nc(-c3ccc(Oc4ccccc4)cc3)c(-c3cccc4[nH]ccc34)s2)C1 (centres unmarked) : > 5.30
O=C(O)C1CC(CNc2nc(-c3ccc(-c4ccc(F)cc4)cc3)c(-c3ccccc3)s2)C1 (centres unmarked) : > 5.30
CC1(C(=O)O)CN(c2nc(-c3ccc(-c4cnco4)cc3)c(-c3ccccc3)s2)C1 : < 4.60
CC(CC(=O)O)Nc1nc(-c2ccc(-c3ccc(F)cc3)cc2)c(-c2ccccc2)s1 (centres unmarked) : 4.60 to 5.30

Read the next record carefully.
Observed pIC50, human eIF4E protein (Homo sapiens, UniProt P06730), CC(CC(=O)O)Nc1nc(-c2ccc(Oc3ccccc3)cc2)c(-c2cccnc2)s1 (centres unmarked) : < 4.60
